system: K4 kissing-loop RNA reporter; assay: apparent KD of K4 kissing-loop reporter; higher = weaker reporter binding; conditions: Eterna round: R107; input ligand: theophylline 20 uM
property-name: apparent KD of K4 kissing-loop reporter (nM)
A number alone suffices; assume nM.

Here's what some known entries look like.
>  <entry-sequence>
AAAUAAAGCAGUCAUCCAGUGAUGUUGGAAGGAGCGUGCGAAAGCACAGGUAGGUCGCCAAAACCUAAUAAUGGCUGCUAAAUAA [#SwitchBubble 2 #K4Early]

>  <tested-system>
K4 kissing-loop RNA reporter

>  <unit-text>
nM

>  <apparent KD of K4 kissing-loop reporter>
210

$$$$
>  <entry-sequence>
UGUAUGGACUGAAGGAGCGCUAGGUAUGUGAGUGAUGUUCAUAUAAAUGUAUAAAGGGUUUGGCAGGUAGGUCGCAGUCCAUACU [KL-SSArg B6]

>  <tested-system>
K4 kissing-loop RNA reporter

>  <unit-text>
nM

>  <apparent KD of K4 kissing-loop reporter>
154

$$$$
>  <entry-sequence>
UCACUACACUGAAGGAGCGUGAGGAGACUAGUGAUGUUGGUCAGAUUCUAUGAUCGUAACUCACAGGUAGGUCGCAGUGUAGUGU [Arg B SS t7]

>  <tested-system>
K4 kissing-loop RNA reporter

>  <unit-text>
nM

>  <apparent KD of K4 kissing-loop reporter>
378

$$$$

INPUT: Please look up its apparent KD of K4 kissing-loop reporter: AGAACUGUCUUGGAUACCAGUGAUGUUGGUAUCGAUGUGUGAGUGCAAAGCGUCCCACAUCGCCCUUGGCAGCUAAGACAGUUCA [Omei KL Theo B Exc A v5]
OUTPUT: 375

INPUT: How about AUCAUAUCUAGUCAGCCCAGUGAUGUUGGGCGAGGACCGGUACGGCCGCCACUCGCUUCGUUGCGGUGGCUGGCGUUACGACAAA [Inveusma] ?
OUTPUT: 142

INPUT: How about ACAGGAAUCUUUGAUACCAGAACCCGUCUACCUCCAUCCUUGGAGCAUAGUGAUGUUGUGUUCCCUUGGCAGCAAUAGGGCACAU [theeternabot_exclusion_KL_Theo_B_34] ?
OUTPUT: 597

INPUT: How about UAACGGCCCAGUGAUGUUGGGUGGAGGCGGCGAGGACCGGUACGGCCGCCACUCGGCGCACAGGCGGAGUGAUGUUGCGCGUAAA [Same State Tryptophan A GF 13] ?
OUTPUT: 182

INPUT: How about GUGGGCAUAGCAGGAUAUCCAUAUUAACAGGAGUCCUCGCCAGUGAUGUUGGAAAGGUACCGGAGUGGAGAAGGGCUCCUACGUA [Anbiratien] ?
OUTPUT: 757

INPUT: How about GGAUAGGACACAGGAUAUGGUAGUGAUGUUACCAAACUGGUUAAACAUGUCAGAAAACUGGCAUGACCAGAAGGGUGUCCUAUCG [FmnBX 27 C11+G75] ?
OUTPUT: 71

INPUT: How about AAAUAAAGGGCGGCCGCCACUGAUCGCCUCCGCGUGGGUAUGUAGUGAUGUUAUAUGGCCGCCAUCAGGACCGGGCCAAAUAAAA [#10 K4 Tryptophan B Same State] ?
OUTPUT: 272

====

tested on: K4 kissing-loop RNA reporter; assay: apparent KD of K4 kissing-loop reporter; higher = weaker reporter binding; conditions: Eterna round: R107; input ligand: tryptophan 2.4 mM
This listing pairs sequences with measured apparent KD of K4 kissing-loop reporter.
A number alone suffices; assume nM.

Here's what some known entries look like.
>  <entry-sequence>
UGUGUUUACCUGACUCAGUGAUGUUGAGAAGGAGCGUGAGAAAGCACAGGUAGGUCGCUCAACCUAAAUUCAGGUGAGCACUAAA

>  <tested-system>
K4 kissing-loop RNA reporter

>  <property-name>
apparent KD of K4 kissing-loop reporter

>  <unit-text>
nM

>  <endpoint-value>
204

$$$$
>  <entry-sequence>
CCUUGGGCACGCCCACUAGGAAGCUAGUCUAAGGAUAUCGACUGGACGAGAAGGUAGACGGACCCGAGUGAUGUUCGGACAUAGG [theeternabot_sameState_KL_FMN_A_1]

>  <tested-system>
K4 kissing-loop RNA reporter

>  <property-name>
apparent KD of K4 kissing-loop reporter

>  <unit-text>
nM

>  <endpoint-value>
200

$$$$
>  <entry-sequence>
GGAGCUACCUGGGAUACCAGUCGGAGUCUCAGAGCUCGGAGUGAUGUUCUGGGAUGUUUCGGCCCUUGGCAGCUCUGGGACUCCU [#2 Exclusion - Theophylline B Attempt #18 (HarryS)]

>  <tested-system>
K4 kissing-loop RNA reporter

>  <property-name>
apparent KD of K4 kissing-loop reporter

>  <unit-text>
nM

>  <endpoint-value>
881

$$$$
>  <entry-sequence>
AUGGGUUUGGGAGGAUAUCCUUCCCACGUCGAAGUACCGUGCUUGAUGGAGUGAUGUUCGAUCAGAGGAGAAGGCCCGGAUUUAU [Same State FMN B GF21]

>  <tested-system>
K4 kissing-loop RNA reporter

>  <property-name>
apparent KD of K4 kissing-loop reporter

>  <unit-text>
nM

>  <endpoint-value>
536

$$$$
>  <entry-sequence>
CGACUAUUUCGAUAGUCGAUAGACACGGAAGGAGCGGGAUUCGUCCCAGGUAGGUCGCCGUGAAGUUGAGUGAUGUUCAACGUGU [Arg A SS t13]

>  <tested-system>
K4 kissing-loop RNA reporter

>  <property-name>
apparent KD of K4 kissing-loop reporter

>  <unit-text>
nM

>  <endpoint-value>
147

$$$$
>  <entry-sequence>
AUCAGCCUCAGAAGGAGCGUGAGUUUUAAGAGGCUGGAGUGAUGUUCCAGACAUAACGACUCACAGGUAGGUCGCUGAGACUAGU [Arg B SS t1]

>  <tested-system>
K4 kissing-loop RNA reporter

>  <property-name>
apparent KD of K4 kissing-loop reporter

>  <unit-text>
nM

>  <endpoint-value>
114

$$$$
>  <entry-sequence>
GAUUGAGGAAACUCGAUCUUAUAUCCUAGGCAGGAUAUGCGGAAACGCAGAAGGGCCACCUAGCAGUGAUGUUGCAAGCGAAAGC [Ex FMN A 5]

>  <tested-system>
K4 kissing-loop RNA reporter

>  <property-name>
apparent KD of K4 kissing-loop reporter

>  <unit-text>
nM

>  <endpoint-value>
207

$$$$
>  <entry-sequence>
UUGGGCAGUGAUGUUGGCUAGGCCACAGAUACCAGACGCAUGCACGUCCCUUGGCAGCUGCGAAAGUUAGACUUGUAAUGAUAGU [theeternabot_sameState_KL_Theo_A_45]

>  <tested-system>
K4 kissing-loop RNA reporter

>  <property-name>
apparent KD of K4 kissing-loop reporter

>  <unit-text>
nM

>  <endpoint-value>
217

$$$$
>  <entry-sequence>
GAUAUAGAGGCGGCCGCCACUAGUGAUGUUAGUGAUGUUAGAUAGAGAAUAGAACAGAGGUGGGAUAGGACCGGGCCAGAUAGAG [whbob_SS_Tryp_B_w34]

>  <tested-system>
K4 kissing-loop RNA reporter

>  <property-name>
apparent KD of K4 kissing-loop reporter

>  <unit-text>
nM

>  <endpoint-value>
76

$$$$
>  <entry-sequence>
GGUCGAGUGAUGUUCGAUGUUAUGCAUUCAGAGGAUAUAGGAUUGGCUAGAAGGCUGAAUCGAUCUUCGAGUGAUGUUCGAGGAU [Same State FMN A GF 8]

>  <tested-system>
K4 kissing-loop RNA reporter;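 also: bound reporter read as fluorescence of individual clusters on recovered sequencing chips by microscopy, with normalized cluster intensities fitted with a binding model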

>  <property-name>
apparent KD of K4 kissing-loop reporter

>  <unit-text>
nM

>  <endpoint-value>
128

$$$$

From here, focus on the item given below.
INPUT: Quick check: apparent KD of K4 kissing-loop reporter on K4 kissing-loop RNA reporter, item AAUUUAUUAACUGAUACCAGACUUUAGCGCGUUUAUAAGUCAAGUGAUGUUUGACUAAUUGUCCCUUGGCAGCAGUAUUUAUUAA [JR_SSTheophyB_Sub021] ?
OUTPUT: 197
